In this section, each of the molecules is paired with its reported CLint scaled at 1 µM.
Assay: Metabolic stability in human liver microsomes assessed as intrinsic clearance at 1 uM in the presence of NADPH measured for 60 mins by LC-MS/MS analysis
Format: ADME, Microsome
Details: read-out: CLH
Please reply with the bare figure in mL/min/kg and do not write the unit itself.

CCOc1cc2c(cc1OC)C1CC(O)C(CC(C)C)CN1CC2 (configuration not stated)    14.4
COc1cc2c(cc1OCC(F)(F)F)CCN1CC(CC(C)C)C(O)CC21 (configuration not stated)    8.6
COc1cc2c(cc1OC)C1CC(O)(CO)C(CC(C)C)CN1CC2 (configuration not stated)    109
COc1cc2c(cc1OC)[C@H]1C[C@@H](O)[C@H](CC(C)C)CN1CC2 [DIHYDROTETRABENAZINE]    20.9
COc1cc2c(cc1OCC1CC1)CCN1CC(CC(C)C)C(O)CC21 (configuration not stated)    19.4
CCCOc1cc2c(cc1OCC)C1CC(O)C(CC(C)C)CN1CC2 (configuration not stated)    22.5

# next molecule below
Supply measured CLint scaled at 1 µM of COc1cc2c(cc1OC)C1CC(=O)C(CC(C)C)CN1CC2 (configuration not stated) in your reply.
76

* * *

Biological target: Synaptic vesicular amine transporter (Rattus norvegicus, UniProt Q01827)
Sequence (Q01827 whole entry): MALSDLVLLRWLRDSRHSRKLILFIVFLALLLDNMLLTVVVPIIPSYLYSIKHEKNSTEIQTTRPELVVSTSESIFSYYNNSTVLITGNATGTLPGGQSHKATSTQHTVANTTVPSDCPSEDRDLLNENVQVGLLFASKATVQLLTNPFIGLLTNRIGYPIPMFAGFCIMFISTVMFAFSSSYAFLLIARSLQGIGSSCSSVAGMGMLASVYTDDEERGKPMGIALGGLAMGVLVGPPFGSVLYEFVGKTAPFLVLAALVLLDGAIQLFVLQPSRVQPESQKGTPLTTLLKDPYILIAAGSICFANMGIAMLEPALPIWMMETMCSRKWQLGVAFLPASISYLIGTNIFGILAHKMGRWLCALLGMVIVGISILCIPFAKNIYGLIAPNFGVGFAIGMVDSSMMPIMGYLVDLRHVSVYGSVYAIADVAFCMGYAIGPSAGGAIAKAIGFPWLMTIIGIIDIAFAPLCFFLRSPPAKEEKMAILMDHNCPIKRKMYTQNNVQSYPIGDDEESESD
Assay: Inhibition of [3H]DTBZ binding to VMAT2 in rat brain incubated for 30 mins by liquid scintillation spectrometry analysis
Assay type: tissue-based
measuredParameter: IC50 (nM)
Please reply with the bare figure in nM and do not write the unit itself.

// below: answered compounds
CCCOc1cc2c(cc1OCC)C1CC(O)C(CC(C)C)CN1CC2 (stereo unspecified)    12.5
CCOc1cc2c(cc1OCCCF)CCN1CC(CC(C)C)C(O)CC21 (stereo unspecified)    56.6
CC(C)CC1CN2CCc3cc(OCC4CC4)c(OCC4CC4)cc3C2CC1O (stereo unspecified)    210

# next compound below
Write IC50 of CCOc1cc2c(cc1OCC1CC1)CCN1CC(CC(C)C)C(O)CC21 (stereo unspecified) ; system used: Synaptic vesicular amine transporter (Rattus norvegicus, UniProt Q01827)
21.4

* * *

In this section, each of the molecules is paired with its reported log10 IC50.
Target: Synaptic vesicular amine transporter (Rattus norvegicus)
Experiment: Inhibition of [3H]DTBZ binding to VMAT2 in rat brain incubated for 30 mins by liquid scintillation spectrometry analysis
Format: tissue-based
A value of 2 here means IC50 of 100 in nM, since values are log10.

// below: answered molecules
CCOc1cc2c(cc1OCCCOC)C1CC(O)C(CC(C)C)CN1CC2 (stereo unspecified)    1.86
COc1cc2c(cc1OC)C1CC(O)(CO)C(CC(C)C)CN1CC2 (stereo unspecified)    0.90
COc1cc2c(cc1OC)C1CC(N)C(CC(C)C)CN1CC2 (stereo unspecified)    2.01

Supply measured log10 IC50 of CCOc1cc2c(cc1OCCCOC)CCN1CC(CC(C)C)C(O)CC21 (stereo unspecified) in your reply.
2.30

Supply measured log10 IC50 of COc1cc2c(cc1OC)C1CC(O)(C#N)C(CC(C)C)CN1CC2 (stereo unspecified) in your reply.
1.94

Supply measured log10 IC50 of COc1cc2c(cc1OCC1CC1)CCN1CC(CC(C)C)C(O)CC21 (stereo unspecified) in your reply.
0.78

* * *

Molecular target: UniProt:P11712
Sequence (P11712 whole entry): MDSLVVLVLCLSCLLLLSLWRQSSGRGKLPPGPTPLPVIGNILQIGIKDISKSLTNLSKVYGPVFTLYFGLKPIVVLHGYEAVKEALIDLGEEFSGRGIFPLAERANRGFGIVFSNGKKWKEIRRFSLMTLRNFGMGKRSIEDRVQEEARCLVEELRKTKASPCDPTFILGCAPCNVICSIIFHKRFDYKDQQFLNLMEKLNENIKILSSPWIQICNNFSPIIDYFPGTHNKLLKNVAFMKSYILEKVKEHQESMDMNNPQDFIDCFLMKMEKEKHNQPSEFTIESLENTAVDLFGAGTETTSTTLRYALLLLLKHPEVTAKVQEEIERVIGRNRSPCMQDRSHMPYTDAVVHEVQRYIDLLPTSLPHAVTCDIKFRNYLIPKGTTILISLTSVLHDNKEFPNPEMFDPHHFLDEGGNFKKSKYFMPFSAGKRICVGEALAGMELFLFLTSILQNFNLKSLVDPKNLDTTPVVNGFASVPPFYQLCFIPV
measuredParameter: IC50

Supply measured IC50 of COc1cc2c(cc1OC)[C@H]1C[C@@H](O)[C@H](CC(C)C)CN1CC2 [DIHYDROTETRABENAZINE] in your reply.
> 100 µM
